These measurements were taken from ChEMBL document CHEMBL1146891.

Entries and their log10(2PT) values follow.
# Target system: Coagulation factor VII/tissue factor (Homo sapiens) (UniProt P08709+P13726)
# Measurement notes: Anticoagulant activity in human plasma measured as prothrombin time
# Assay type: functional, cell-free
Friendly reminder: values = log10 of 2PT, unit µM.

In the examples that follow, each entry is paired with its recorded log10(2PT).
Cc1nc2c(C(F)(F)F)nn(-c3ccc4onc(N)c4c3)c2c(=O)n1-c1ccc(-c2ccccc2CNCC2CC2)cc1 : 1.04
Cc1nn(-c2ccc3onc(N)c3c2)c2c(=O)n(-c3ccc(-c4ccccc4CN4CCCC4)cc3)cnc12 : 0.04
Cc1nn(-c2ccc3onc(N)c3c2)c2c(=O)n(-c3ccc(-c4ccccc4CN(C)C)cc3)c(C)nc12 : 0.15
Cc1nn(-c2ccc3onc(N)c3c2)c2c(=O)n(-c3ccc(-c4ccccc4CN4CC[C@H](O)C4)cc3)cnc12 : 0.32
CCOC(=O)c1nn(-c2ccc3onc(N)c3c2)c2c(=O)n(-c3ccc(-c4ccccc4CN4CCCC4)cc3)cnc12 : 0.36

If you can, please state the reported log10(2PT) value of Cc1nn(-c2ccc3onc(N)c3c2)c2c(=O)n(-c3ccc(-c4ccccc4CNCC4CC4)cc3)cnc12 .
0.49

If you can, please state the reported log10(2PT) value of Cc1nn(-c2ccc3onc(N)c3c2)c2c(=O)n(-c3ccc(-c4ccccc4CN(C)C)cc3)cnc12 .
0.11

If you can, please state the reported log10(2PT) value of Nc1nc2c(C(F)(F)F)nn(-c3ccc4onc(N)c4c3)c2c(O)c1-c1ccc(-c2ccccc2CN2CCC(O)CC2)cc1 .
2.36

If you can, please state the reported log10(2PT) value of Cc1nn(-c2ccc3onc(N)c3c2)c2c(=O)n(-c3ccc(-c4ccccc4CN4CC[C@@H](O)C4)cc3)c(C)nc12 .
0.40

If you can, please state the reported log10(2PT) value of Nc1noc2ccc(-n3nc(C(F)(F)F)c4c3C(=O)N(c3ccc(-c5ccccc5CN5CC[C@@H](O)C5)cc3)CN4)cc12 .
0.20

If you can, please state the reported log10(2PT) value of Cc1nc2c(C(F)(F)F)nn(-c3ccc4onc(N)c4c3)c2c(=O)n1-c1ccc(-c2ccccc2CN2CC[C@@H](O)C2)cc1 .
0.82

* * *

# Target system: Chymotrypsinogen B (Homo sapiens, UniProt P17538)
# Sequence (P17538 34-164 limits assumed, other chains not shown): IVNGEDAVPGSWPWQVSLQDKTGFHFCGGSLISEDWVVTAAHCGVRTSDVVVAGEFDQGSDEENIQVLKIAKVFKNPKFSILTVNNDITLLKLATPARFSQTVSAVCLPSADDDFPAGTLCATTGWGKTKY
# Sequence (P17538 167-263 limits assumed, other chains not shown): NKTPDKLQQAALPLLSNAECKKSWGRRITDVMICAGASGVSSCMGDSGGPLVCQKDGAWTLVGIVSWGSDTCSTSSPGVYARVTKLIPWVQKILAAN
Readout kind: Ki
Please don't drop the unit; write it after the number.

Request: Ki, test system Chymotrypsinogen B (Homo sapiens, UniProt P17538), entry Cc1nn(-c2ccc3onc(N)c3c2)c2c(=O)n(-c3ccc(-c4ccccc4CN(C)C)cc3)c(C)nc12
960 nM

* * *

# Target system: Vitamin K-dependent protein C (Homo sapiens, UniProt P04070)
# Sequence (P04070 43-197 limits assumed): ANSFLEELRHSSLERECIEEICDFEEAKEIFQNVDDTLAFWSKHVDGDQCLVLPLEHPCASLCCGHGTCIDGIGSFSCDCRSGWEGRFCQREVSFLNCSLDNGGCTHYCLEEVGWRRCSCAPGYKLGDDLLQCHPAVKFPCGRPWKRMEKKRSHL
# Sequence (P04070 212-461 limits assumed): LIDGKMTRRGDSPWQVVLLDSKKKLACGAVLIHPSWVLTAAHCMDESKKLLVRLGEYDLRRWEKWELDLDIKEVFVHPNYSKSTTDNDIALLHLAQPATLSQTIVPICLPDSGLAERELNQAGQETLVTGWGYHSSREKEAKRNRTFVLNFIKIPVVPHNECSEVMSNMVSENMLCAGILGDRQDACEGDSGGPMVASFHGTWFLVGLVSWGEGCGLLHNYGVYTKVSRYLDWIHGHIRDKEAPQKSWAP
# Measurement notes: Binding affinity to human activated protein C
Readout kind: Ki

In the examples that follow, each entry is paired with its recorded Ki.
Cc1nn(-c2ccc3onc(N)c3c2)c2c(=O)n(-c3ccc(-c4ccccc4CN(C)C)cc3)c(C)nc12 : 19 µM
Cc1nn(-c2ccc3onc(N)c3c2)c2c(=O)n(-c3ccc(-c4ccccc4CN4CC[C@@H](O)C4)cc3)c(C)nc12 : > 76 µM
Nc1noc2ccc(-n3nc(C(F)(F)F)c4c3C(=O)N(c3ccc(-c5ccccc5CN5CC[C@@H](O)C5)cc3)CN4)cc12 : > 20 µM

Moving on to another compound below.
If you can, please state the reported Ki value of Cc1nc2c(C(F)(F)F)nn(-c3ccc4onc(N)c4c3)c2c(=O)n1-c1ccc(-c2ccccc2CN(C)C)cc1 .
> 37 µM

* * *

Entries and their Vd values follow.
# Measurement notes: Volume of distribution in dog at 0.5 mg/kg, iv and 0.2 mg/kg, po
# Type: ADME, organism-based, Canis lupus familiaris
# Stated conditions: in vivo, read-out: Vdss
Give the number; L/kg is assumed, so skip it.

In the examples that follow, each entry is paired with its recorded Vd.
Nc1noc2ccc(-n3nc(C(F)(F)F)c4c3C(=O)N(c3ccc(-c5ccccc5CN5CC[C@@H](O)C5)cc3)CN4)cc12.O=C(O)C(F)(F)F : 4.2
Cc1nc2c(C(F)(F)F)nn(-c3ccc4onc(N)c4c3)c2c(=O)n1-c1ccc(-c2ccccc2CN(C)C)cc1.O=C(O)C(F)(F)F : 13
Cc1nn(-c2ccc3onc(N)c3c2)c2c(=O)n(-c3ccc(-c4ccccc4CN4CC[C@@H](O)C4)cc3)c(C)nc12.O=C(O)C(F)(F)F : 6.6
Cc1nc2c(C(F)(F)F)nn(-c3ccc4onc(N)c4c3)c2c(=O)n1-c1ccc(-c2ccccc2CN2CC[C@@H](O)C2)cc1.O=C(O)C(F)(F)F : 6.6
Cc1nn(-c2ccc3onc(N)c3c2)c2c(=O)n(-c3ccc(-c4ccccc4CN(C)C)cc3)cnc12.O=C(O)C(F)(F)F : 9.5

If you can, please state the reported Vd value of Cc1nn(-c2ccc3onc(N)c3c2)c2c(=O)n(-c3ccc(-c4ccccc4CN(C)C)cc3)c(C)nc12.O=C(O)C(F)(F)F .
8.9

* * *

# Target system: Plasminogen (Homo sapiens)
# Sequence (P00747 97-580 limits assumed): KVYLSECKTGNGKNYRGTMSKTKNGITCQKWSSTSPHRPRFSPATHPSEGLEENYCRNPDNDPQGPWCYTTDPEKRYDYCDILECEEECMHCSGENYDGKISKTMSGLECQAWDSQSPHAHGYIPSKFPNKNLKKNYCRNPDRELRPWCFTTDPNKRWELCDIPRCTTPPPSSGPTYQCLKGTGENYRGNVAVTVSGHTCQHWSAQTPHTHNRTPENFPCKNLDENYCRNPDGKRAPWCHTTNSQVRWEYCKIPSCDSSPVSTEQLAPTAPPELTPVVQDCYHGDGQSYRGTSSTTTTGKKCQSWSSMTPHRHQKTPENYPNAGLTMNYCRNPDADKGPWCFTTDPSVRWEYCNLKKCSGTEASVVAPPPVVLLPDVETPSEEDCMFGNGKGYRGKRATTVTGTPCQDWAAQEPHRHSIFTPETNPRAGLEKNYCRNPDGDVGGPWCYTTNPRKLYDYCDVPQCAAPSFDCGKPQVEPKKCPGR
# Sequence (P00747 581-810 limits assumed): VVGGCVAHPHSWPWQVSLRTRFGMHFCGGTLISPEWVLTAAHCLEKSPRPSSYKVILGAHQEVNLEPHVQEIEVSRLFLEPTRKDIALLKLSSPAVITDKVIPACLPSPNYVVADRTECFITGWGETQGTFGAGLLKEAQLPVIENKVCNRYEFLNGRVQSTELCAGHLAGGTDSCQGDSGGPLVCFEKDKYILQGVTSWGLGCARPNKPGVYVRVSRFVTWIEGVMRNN
# Measurement notes: Binding affinity to human plasmin
Entries and their Ki values follow.

Nc1noc2ccc(-n3nc(C(F)(F)F)c4c3C(=O)N(c3ccc(-c5ccccc5CN5CC[C@@H](O)C5)cc3)CN4)cc12 : > 15 µM

Moving on to another molecule below.
If you can, please state the reported Ki value of Cc1nn(-c2ccc3onc(N)c3c2)c2c(=O)n(-c3ccc(-c4ccccc4CN4CC[C@@H](O)C4)cc3)c(C)nc12 .
> 15 µM

* * *

# Measurement notes: Clearance in dog at 0.5 mg/kg, iv and 0.2 mg/kg, po
# Assay type: ADME, organism-based, Canis lupus familiaris
# Stated conditions: in vivo
Readout kind: clearance (mL/min/kg)
Give the number; mL/min/kg is assumed, so skip it.

Cc1nn(-c2ccc3onc(N)c3c2)c2c(=O)n(-c3ccc(-c4ccccc4CN(C)C)cc3)cnc12.O=C(O)C(F)(F)F : 55

If you can, please state the reported clearance value of Cc1nn(-c2ccc3onc(N)c3c2)c2c(=O)n(-c3ccc(-c4ccccc4CN(C)C)cc3)c(C)nc12.O=C(O)C(F)(F)F .
28.3

If you can, please state the reported clearance value of Cc1nc2c(C(F)(F)F)nn(-c3ccc4onc(N)c4c3)c2c(=O)n1-c1ccc(-c2ccccc2CN(C)C)cc1.O=C(O)C(F)(F)F .
11.7

If you can, please state the reported clearance value of Cc1nc2c(C(F)(F)F)nn(-c3ccc4onc(N)c4c3)c2c(=O)n1-c1ccc(-c2ccccc2CN2CC[C@@H](O)C2)cc1.O=C(O)C(F)(F)F .
10

If you can, please state the reported clearance value of Nc1noc2ccc(-n3nc(C(F)(F)F)c4c3C(=O)N(c3ccc(-c5ccccc5CN5CC[C@@H](O)C5)cc3)CN4)cc12.O=C(O)C(F)(F)F .
16.3

If you can, please state the reported clearance value of Cc1nn(-c2ccc3onc(N)c3c2)c2c(=O)n(-c3ccc(-c4ccccc4CN4CC[C@@H](O)C4)cc3)c(C)nc12.O=C(O)C(F)(F)F .
20

* * *

Entries and their bioavailability values follow.
# Measurement notes: Bioavailability in dog at 0.5 mg/kg, iv and 0.2 mg/kg, po
# Format: ADME, organism-based, Canis lupus familiaris
# Stated conditions: in vivo
Give the number; % is assumed, so skip it.

In the examples that follow, each entry is paired with its recorded bioavailability.
Cc1nn(-c2ccc3onc(N)c3c2)c2c(=O)n(-c3ccc(-c4ccccc4CN4CC[C@@H](O)C4)cc3)c(C)nc12.O=C(O)C(F)(F)F : 48
Nc1noc2ccc(-n3nc(C(F)(F)F)c4c3C(=O)N(c3ccc(-c5ccccc5CN5CC[C@@H](O)C5)cc3)CN4)cc12.O=C(O)C(F)(F)F : 27
Cc1nc2c(C(F)(F)F)nn(-c3ccc4onc(N)c4c3)c2c(=O)n1-c1ccc(-c2ccccc2CN2CC[C@@H](O)C2)cc1.O=C(O)C(F)(F)F : 58
Cc1nn(-c2ccc3onc(N)c3c2)c2c(=O)n(-c3ccc(-c4ccccc4CN(C)C)cc3)c(C)nc12.O=C(O)C(F)(F)F : 23
Cc1nn(-c2ccc3onc(N)c3c2)c2c(=O)n(-c3ccc(-c4ccccc4CN(C)C)cc3)cnc12.O=C(O)C(F)(F)F : 2

Moving on to another molecule below.
If you can, please state the reported bioavailability value of Cc1nc2c(C(F)(F)F)nn(-c3ccc4onc(N)c4c3)c2c(=O)n1-c1ccc(-c2ccccc2CN(C)C)cc1.O=C(O)C(F)(F)F .
63

* * *

# Target system: Coagulation factor IX (Homo sapiens)
# Sequence (P00740 47-191 limits assumed): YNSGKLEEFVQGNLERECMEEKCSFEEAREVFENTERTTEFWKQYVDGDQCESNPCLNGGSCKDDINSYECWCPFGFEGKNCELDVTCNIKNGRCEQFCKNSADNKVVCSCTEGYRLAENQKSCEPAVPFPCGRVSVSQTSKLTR
# Sequence (P00740 227-461 limits assumed): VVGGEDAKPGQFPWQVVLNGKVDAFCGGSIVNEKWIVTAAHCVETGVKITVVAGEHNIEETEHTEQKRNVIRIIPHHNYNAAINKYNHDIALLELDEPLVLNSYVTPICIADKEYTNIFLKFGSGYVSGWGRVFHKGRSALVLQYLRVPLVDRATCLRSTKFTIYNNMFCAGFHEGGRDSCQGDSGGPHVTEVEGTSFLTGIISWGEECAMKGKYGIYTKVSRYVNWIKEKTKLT
pKi: −log10 of the molar value.
Readout kind: pKi

If you can, please state the reported pKi value of Cc1nn(-c2ccc3onc(N)c3c2)c2c(=O)n(-c3ccc(-c4ccccc4CN4CC[C@@H](O)C4)cc3)c(C)nc12 .
< 4.39

* * *

Please consider the recorded pKi for Coagulation factor X (Homo sapiens, UniProt P00742) in what follows.
The value called pKi is obtained by taking minus log10 of the concentration in mol/L.

CCOC(=O)c1nn(-c2ccc3onc(N)c3c2)c2c(=O)n(-c3ccc(-c4ccccc4CN4CCCC4)cc3)cnc12 : 8.80
Cc1nn(-c2ccc3onc(N)c3c2)c2c(=O)n(-c3ccc(-c4ccccc4CN(C)C)cc3)c(C)nc12 : 9.57
Nc1noc2ccc(-n3nc(C(F)(F)F)c4[nH]c(=O)n(-c5ccc(-c6ccccc6CN6CCC(O)CC6)cc5)c(=O)c43)cc12 : 9.66
CN(C)Cc1ccccc1-c1ccc(-c2cnc3c(C(F)(F)F)nn(-c4ccc5onc(N)c5c4)c3c2O)cc1 : 8.49
Cc1nn(-c2ccc3onc(N)c3c2)c2c(=O)n(-c3ccc(-c4ccccc4CN4CCCC4)cc3)cnc12 : 8.89

If you can, please state the reported pKi value of Cc1nn(-c2ccc3onc(N)c3c2)c2c(=O)n(-c3ccc(-c4ccccc4CNC(C)C)cc3)cnc12 .
8.82

If you can, please state the reported pKi value of Cc1nc2c(C(F)(F)F)nn(-c3ccc4onc(N)c4c3)c2c(=O)n1-c1ccc(-c2ccccc2CN2CC[C@@H](O)C2)cc1 .
9.74

If you can, please state the reported pKi value of Cc1nn(-c2ccc3onc(N)c3c2)c2c(=O)n(-c3ccc(-c4ccccc4CN(C)C)cc3)cnc12 .
9.28
